# credit: patent US8399482B2

target: human recombinant ROCK II (Homo sapiens, UniProt O75116); construct: recombinant human ROCK-II residues 11-552; His6 (N); test: Determination of Rho kinase inhibition (ROCK II, Caliper peptide phosphorylation assay); details: respective form (salt or free base) as obtained in the examples, 60 min at 32° C.
Sequence (O75116 11-552): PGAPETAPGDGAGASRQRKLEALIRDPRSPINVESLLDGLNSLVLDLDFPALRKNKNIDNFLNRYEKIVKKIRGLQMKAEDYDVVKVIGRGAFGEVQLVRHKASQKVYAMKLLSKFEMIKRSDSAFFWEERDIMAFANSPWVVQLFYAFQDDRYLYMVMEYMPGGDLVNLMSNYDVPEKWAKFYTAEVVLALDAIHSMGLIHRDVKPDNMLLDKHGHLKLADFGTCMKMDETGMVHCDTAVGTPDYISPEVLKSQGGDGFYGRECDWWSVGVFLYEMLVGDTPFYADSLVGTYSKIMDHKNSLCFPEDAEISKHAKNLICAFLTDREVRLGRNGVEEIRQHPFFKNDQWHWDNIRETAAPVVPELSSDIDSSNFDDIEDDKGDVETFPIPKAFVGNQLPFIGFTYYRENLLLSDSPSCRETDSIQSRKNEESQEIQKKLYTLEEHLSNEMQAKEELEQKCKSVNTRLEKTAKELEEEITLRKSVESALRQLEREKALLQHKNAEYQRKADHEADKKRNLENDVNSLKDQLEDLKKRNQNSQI
Reported IC50 by item:

compound="CCC(N)[C@]1(OC)CC[C@H](Oc2cc3cc[nH]c(=O)c3cc2Cl)CC1 (stereo partly shown)" assay_readout=IC50 result="10 to 100 nM"
compound="CCC(N)C1(COC(C)C)CCC(Oc2cc3cc[nH]c(=O)c3cc2Cl)CC1 (single isomer, unassigned) [Example 20]" assay_readout=IC50 result="100 to 1000 nM"
compound="CC(C)C(N)C1(CC2CC2)CCC(Oc2cc3cc[nH]c(=O)c3cc2Cl)CC1 (single isomer, unassigned)" assay_readout=IC50 result="≤ 10 nM"

# evaluate next
Report measured IC50; entry is NC(C1CC1)C1(CC2CC2)CCC(Oc2cc3cc[nH]c(=O)c3cc2Cl)CC1 (single isomer, unassigned) [Example 17]
10 to 100 nM

---

molecular target: human recombinant ROCK II (Homo sapiens, UniProt O75116); construct: recombinant human ROCK-II residues 11-552; His6 (N); test: Determination of Rho kinase inhibition (ROCK II, Caliper peptide phosphorylation assay); settings: respective form (salt or free base) as obtained in the examples, 60 min at 32° C.
ASSAY READOUT: IC50

Below, each entry is followed by its recorded IC50 result.
compound="NC(C(F)(F)F)C1(CC2CC2)CCC(Oc2cc3cc[nH]c(=O)c3cc2Cl)CC1 (single isomer, unassigned) [Example 40]" target_of_assay="human recombinant ROCK II (Homo sapiens, UniProt O75116)" result="100 to 1000 nM"
compound="CCC(N)C1(C2CCOCC2)CCC(Oc2cc3cc[nH]c(=O)c3cc2Cl)CC1 (single isomer, unassigned) [Example 105]" target_of_assay="human recombinant ROCK II (Homo sapiens, UniProt O75116)" result="10 to 100 nM"
compound="CCOC[C@]1(C(N)CC)CC[C@@H](Oc2cc3cc[nH]c(=O)c3cc2Cl)CC1 (some centres unmarked) [Example 71]" target_of_assay="human recombinant ROCK II (Homo sapiens, UniProt O75116)" result="≤ 10 nM"
compound="CCC(N)C1(C(C)C)CCC(Oc2cc3cc[nH]c(=O)c3cc2Cl)CC1 (single isomer, unassigned) [Example 8]" target_of_assay="human recombinant ROCK II (Homo sapiens, UniProt O75116)" result="≤ 10 nM"
compound="CCC(N)C1(C2CCOCC2)CCC(Oc2cc3cc[nH]c(=O)c3cc2Cl)CC1 (single isomer, unassigned) [Example 106]" target_of_assay="human recombinant ROCK II (Homo sapiens, UniProt O75116)" result="≤ 10 nM"

Report measured IC50; entry is CC(N)C1(CC2CC2)CCC(Oc2cc3cc[nH]c(=O)c3cc2Cl)CC1 (single isomer, unassigned) [Example 11]
10 to 100 nM

Report measured IC50; entry is CC(C)C1(C(N)c2cncs2)CCC(Oc2cc3cc[nH]c(=O)c3cc2Cl)CC1 (single isomer, unassigned) [Example 47]
10 to 100 nM

Report measured IC50; entry is CCCC(N)C1(CC2CC2)CCC(Oc2cc3cc[nH]c(=O)c3cc2Cl)CC1 (single isomer, unassigned) [Example 15]
10 to 100 nM

Report measured IC50; entry is CC[C@]1(C(C)N)CC[C@@H](Oc2cc3ccncc3cc2Br)CC1 (some centres unmarked) [Example 82]
100 to 1000 nM

Report measured IC50; entry is CC[C@]1(C(C)N)CC[C@@H](Oc2ccc3cnccc3c2Cl)CC1 (some centres unmarked) [Example 84]
100 to 1000 nM

---

Reported Selectivity against PKG by item:
target: recombinant human PKG1-beta (Homo sapiens, UniProt Q13976); construct: PKG1-beta (full-length, with N-terminal His-tag); His-tag (N); purchased Millipore GmbH, Schwalbach, Germany; assay: Determination of Protein Kinase G inhibition (selectivity); format: biochemical; conditions: from IC50 values
Sequence (Q13976 1-686 isoform Q13976-2): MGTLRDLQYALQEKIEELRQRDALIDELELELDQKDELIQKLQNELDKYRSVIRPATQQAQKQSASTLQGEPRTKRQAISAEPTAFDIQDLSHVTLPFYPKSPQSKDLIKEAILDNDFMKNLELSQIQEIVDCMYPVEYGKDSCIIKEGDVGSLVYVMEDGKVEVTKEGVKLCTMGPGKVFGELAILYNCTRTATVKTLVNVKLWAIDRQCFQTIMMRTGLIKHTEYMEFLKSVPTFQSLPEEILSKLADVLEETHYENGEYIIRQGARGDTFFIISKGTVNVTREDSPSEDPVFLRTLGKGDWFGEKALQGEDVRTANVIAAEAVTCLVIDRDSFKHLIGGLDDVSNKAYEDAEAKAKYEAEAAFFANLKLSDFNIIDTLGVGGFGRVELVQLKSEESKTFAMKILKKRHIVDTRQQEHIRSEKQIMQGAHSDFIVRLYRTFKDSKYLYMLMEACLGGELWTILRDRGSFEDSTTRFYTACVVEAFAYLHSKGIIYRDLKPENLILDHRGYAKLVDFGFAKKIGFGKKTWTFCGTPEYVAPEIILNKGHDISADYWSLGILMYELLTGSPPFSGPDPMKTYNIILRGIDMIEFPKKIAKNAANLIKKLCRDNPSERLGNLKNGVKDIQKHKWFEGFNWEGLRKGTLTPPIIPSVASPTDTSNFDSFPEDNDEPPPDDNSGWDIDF

Below, each entry is followed by its recorded Selectivity against PKG result.
compound="CCCC(N)C1(CC2CC2)CCC(Oc2cc3cc[nH]c(=O)c3cc2Cl)CC1 (single isomer, unassigned) [Example 14]" result=">100 fold"
compound="NC(c1ccccc1)C1(C2CCCC2)CCC(Oc2cc3cc[nH]c(=O)c3cc2Cl)CC1 (single isomer, unassigned)" result=">100 fold"
compound="NC(C1CC1)C1(CC2CC2)CCC(Oc2cc3cc[nH]c(=O)c3cc2Cl)CC1 (single isomer, unassigned) [Example 17]" result=">10 fold"
compound="CC(N)C1(CC2CC2)CCC(Oc2cc3cc[nH]c(=O)c3cc2Cl)CC1 (single isomer, unassigned) [Example 10]" result=">300 fold"
compound="CCC(N)[C@]1(C2CC2)CC[C@H](Oc2cc3cc[nH]c(=O)c3cc2Cl)CC1 (some centres unmarked)" result=">1000 fold"

Report measured Selectivity against PKG; entry is CCC(N)C1(Cc2ccccc2)CCC(Oc2cc3cc[nH]c(=O)c3cc2Cl)CC1 (single isomer, unassigned) [Example 31]
>100 fold

Report measured Selectivity against PKG; entry is CC(C)C1(C(N)c2cncs2)CCC(Oc2cc3cc[nH]c(=O)c3cc2Cl)CC1 (single isomer, unassigned)
>300 fold

Report measured Selectivity against PKG; entry is CC[C@]1(C(N)CF)CC[C@@H](Oc2cc3cc[nH]c(=O)c3cc2Cl)CC1 (some centres unmarked)
>300 fold

---

Reported IC50 by item:
Biological target: human recombinant ROCK II (Homo sapiens, UniProt O75116)
Construct: recombinant human ROCK-II residues 11-552; His6 (N)
Test: Determination of Rho kinase inhibition (ROCK II, Caliper peptide phosphorylation assay)
Details: respective form (salt or free base) as obtained in the examples, 60 min at 32° C.
Protocol: To measure Rho-kinase inhibition, IC50 values were determined according to the following protocol: Active human recombinant ROCK II (N-terminal His6-tagged recombinant human ROCK-II residues 11-552) was purchased from Millipore GmbH, Schwalbach, Germany. […] Phosphorylation of the substrate peptide was then detected on a Caliper 3000 instrument essentially as described by Pommereau et al (J. Biomol. Screening 2004, 9(5), 409-416). […]

Below, each entry is followed by its recorded IC50 result.
compound="CCC(N)[C@]1(CC)CC[C@H](Oc2cc3cc[nH]c(=O)c3cc2F)CC1 (stereo partly shown)" assay_readout=IC50 result="0.01 to 0.1 µM"
compound="CCC(N)[C@]1(CCCC(F)(F)F)CC[C@H](Oc2cc3cc[nH]c(=O)c3cc2Cl)CC1 (stereo partly shown)" assay_readout=IC50 result="≤ 0.01 µM"
compound="CCC(N)[C@]1(CC)CC[C@H](Oc2c(F)cc3cnccc3c2C)CC1 (stereo partly shown)" assay_readout=IC50 result="0.1 to 1 µM"
compound="CCC(N)C1(C(F)(F)F)CCC(Oc2cc3cc[nH]c(=O)c3cc2Cl)CC1 (single isomer, unassigned) [Example 104]" assay_readout=IC50 result="0.1 to 1 µM"
compound="CCC(N)C1(CC2CC2)CCC(Oc2cc3cc[nH]c(=O)c3cc2Cl)CC1 (single isomer, unassigned) [Example 13]" assay_readout=IC50 result="0.01 to 0.1 µM"
compound="CCCC(N)C1(CC2CC2)CCC(Oc2cc3cc[nH]c(=O)c3cc2Cl)CC1 (single isomer, unassigned) [Example 14]" assay_readout=IC50 result="≤ 0.01 µM"

Enter recorded IC50 with human recombinant ROCK II (Homo sapiens, UniProt O75116) for CC(N)C1(CC2CC2)CCC(Oc2cc3cc[nH]c(=O)c3cc2Cl)CC1 (single isomer, unassigned) [Example 10] here.
≤ 0.01 µM

Enter recorded IC50 with human recombinant ROCK II (Homo sapiens, UniProt O75116) for CC(N)[C@]1(C2CC2)CC[C@H](Oc2cc3cc[nH]c(=O)c3cc2Cl)CC1 (stereo partly shown) here.
0.01 to 0.1 µM

Enter recorded IC50 with human recombinant ROCK II (Homo sapiens, UniProt O75116) for CCCC1(C(N)C2CC2)CCC(Oc2cc3cc[nH]c(=O)c3cc2Cl)CC1 (single isomer, unassigned) [Example 6] here.
≤ 0.01 µM

Enter recorded IC50 with human recombinant ROCK II (Homo sapiens, UniProt O75116) for CC[C@]1(C(N)C2CC2)CC[C@@H](Oc2cc3cc[nH]c(=O)c3cc2Cl)CC1 (stereo partly shown) here.
≤ 0.01 µM

Enter recorded IC50 with human recombinant ROCK II (Homo sapiens, UniProt O75116) for CCCCNC(CC)[C@]1(CC)CC[C@H](Oc2cc3cc[nH]c(=O)c3cc2Cl)CC1 (stereo partly shown) here.
0.1 to 1 µM

Enter recorded IC50 with human recombinant ROCK II (Homo sapiens, UniProt O75116) for CCC(N)[C@]1(C2CCOCC2)CC[C@H](Oc2cc3cc[nH]c(=O)c3cc2Cl)CC1 (mixture of isomers) [Example 1] here.
≤ 0.01 µM

Enter recorded IC50 with human recombinant ROCK II (Homo sapiens, UniProt O75116) for CC[C@]1(C(C)N)CC[C@@H](Oc2cc3cc[nH]c(=O)c3cc2F)CC1 (stereo partly shown) here.
0.01 to 0.1 µM

Enter recorded IC50 with human recombinant ROCK II (Homo sapiens, UniProt O75116) for CCC(N)C1(CC(C)C)CCC(Oc2cc3cc[nH]c(=O)c3cc2Cl)CC1 (single isomer, unassigned) [Example 28] here.
0.1 to 1 µM

Enter recorded IC50 with human recombinant ROCK II (Homo sapiens, UniProt O75116) for CC(C)CC(N)[C@]1(CC2CC2)CC[C@H](Oc2cc3cc[nH]c(=O)c3cc2Cl)CC1 (stereo partly shown) here.
≤ 0.01 µM

Enter recorded IC50 with human recombinant ROCK II (Homo sapiens, UniProt O75116) for CC[C@]1(C(C)N)CC[C@@H](Oc2cc3cc[nH]c(=O)c3cc2C)CC1 (stereo partly shown) here.
0.01 to 0.1 µM
